# TARGET UNDER TEST: Guanidinoacetate N-methyltransferase (Homo sapiens)
# RUN DESCRIPTION: Confirmatory Screen for Target Class Profiling of Small Molecule Inhibitors of Methyltransferases (AID 1745852)
# CONDITION PARAMETERS: MTase-Glo luminescence, SAH detection, recombinant enzyme; series mostly up to 57.3 µM
Calls of active or inactive are those of the source. Calls come from the whole dose curve.
Pick one: active, inactive

{"COMPOUND": "CC1(C(=O)NC2CCCCCC2)Cn2c(cc3occc32)C(=O)N1Cc1ccc2c(c1)OCO2 (centres undefined)", "LABEL": "inactive"}

[ask] Entry O=C(O)c1ccc2c(c1)C1C=CCC1C(c1ccc(Cl)cc1)N2 (centres undefined) : call = ?
[reply] active

[ask] Entry `Cc1oc(C(=O)O)cc1COc1ccc2c(-c3ccccc3)cc(=O)oc2c1C` : call = ?
[reply] active

[ask] Entry CCCC1c2cccn2CCN1C(=O)Nc1cc(Cl)ccc1C (centres undefined) : call = ?
[reply] inactive

[ask] Entry O=C(NCCc1ccccc1)N1CCn2cccc2C1Cc1ccccc1 (centres undefined) : call = ?
[reply] inactive

[ask] Entry `COc1ccc(CCNC(=O)c2ccc(CN3C(=O)CCn4nccc43)cc2)cc1OC` : call = ?
[reply] active

[ask] Entry `COCCCNC(=O)c1cnc2n[nH]c(-c3ccccc3)c2n1` : call = ?
[reply] active

[ask] Entry `COc1cccc(CNC(=O)c2sc(=S)n3c2[nH]c(=O)c2cc4c(cc23)OCO4)c1` : call = ?
[reply] active

[ask] Entry CCOC(=O)CC1(NC(=O)N2CCn3cccc3C2Cc2ccccc2)CCCCC1 (centres undefined) : call = ?
[reply] inactive

---

# TARGET UNDER TEST: Glucocorticoid receptor (Homo sapiens) (UniProt P04150)
# Sequence (P04150 whole entry, looked up): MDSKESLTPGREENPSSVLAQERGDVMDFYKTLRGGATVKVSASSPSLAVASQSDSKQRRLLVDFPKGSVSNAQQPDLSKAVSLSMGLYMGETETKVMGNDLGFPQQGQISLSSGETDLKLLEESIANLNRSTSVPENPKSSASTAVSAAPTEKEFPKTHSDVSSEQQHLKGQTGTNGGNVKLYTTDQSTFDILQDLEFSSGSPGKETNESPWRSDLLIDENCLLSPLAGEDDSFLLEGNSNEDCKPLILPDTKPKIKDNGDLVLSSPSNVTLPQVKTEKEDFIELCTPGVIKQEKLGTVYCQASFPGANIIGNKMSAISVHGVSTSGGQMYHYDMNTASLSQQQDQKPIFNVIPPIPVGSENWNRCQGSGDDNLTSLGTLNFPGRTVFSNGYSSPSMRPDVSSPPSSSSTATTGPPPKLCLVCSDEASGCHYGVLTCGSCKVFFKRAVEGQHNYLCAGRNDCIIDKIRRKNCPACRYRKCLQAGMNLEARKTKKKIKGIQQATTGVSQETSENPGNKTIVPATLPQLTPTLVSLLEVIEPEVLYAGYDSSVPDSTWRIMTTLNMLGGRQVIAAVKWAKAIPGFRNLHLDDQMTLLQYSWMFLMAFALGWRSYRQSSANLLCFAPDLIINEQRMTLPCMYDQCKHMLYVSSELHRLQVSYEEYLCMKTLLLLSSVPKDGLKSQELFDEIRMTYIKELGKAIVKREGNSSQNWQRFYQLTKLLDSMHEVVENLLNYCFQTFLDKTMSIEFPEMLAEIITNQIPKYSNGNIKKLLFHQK
# RUN DESCRIPTION: GR-GFP Redistribution (AID 450); note: potency is the fitted concentration of half-maximal effect
# CONDITION PARAMETERS: U2OS GR-GFP nuclear translocation, laser cytometry, 2 h
Activity calls are given as the source filed them.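 Rule for the calls: active = compounds whose dose series gives a full or clear partial fitted curve of increased nuclear translocation; inconclusive = weak partial curve or effect only at the top dose; inactive = no dose-dependent translocation response.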
PROPERTY LABEL: Potency

Lookup result for `O=c1cc(-c2cccc(O)c2)oc2c(O)c(O)ccc12` ; measured Potency: > 46 µM (inactive)

Lookup result for `COc1ccccc1CNc1ccnc(-c2cccnc2)n1` ; measured Potency: > 46 µM (inactive)

Lookup result for `COc1cccc(Nc2ncc3ncc(=O)n(Cc4ccc(F)cc4)c3n2)c1` ; measured Potency: > 9.22 µM (inactive)

Lookup result for `COc1ccc2[nH]cc(CCNc3ncncc3-c3ccccc3OC)c2c1` ; measured Potency: > 46 µM (inactive)

---

# TARGET UNDER TEST: Rap guanine nucleotide exchange factor 3 (Homo sapiens)
# RUN DESCRIPTION: Confirmatory qHTS for antagonist of cAMP-regulated guanine nucleotide exchange factor 3 (EPAC1) (AID 1645880);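 note: plate controls were DMSO only for no effect and full effect of the ATA control for full effect; nearly all actives have a fitted effect of over 55% in size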
# CONDITION PARAMETERS: EPAC1 Rap1B-BODIPY-GDP exchange, fluorescence
Inconclusive results are not listed. Calls of active or inactive are those of the source. The call rests on the fitted dose curve; in most records, active means well fitted inhibition curve with a large enough effect; inconclusive means small, poorly fitted or top-dose-only effect; inactive means no such curve, though single readings can be large or run the other way.

{"STRUCTURE STRING": "COc1ccc2cc(S(=O)(=O)N3CCCC3)ccc2c1", "TARGET UNDER TEST": "Rap guanine nucleotide exchange factor 3 (Homo sapiens)", "outcome": "inactive"}
{"STRUCTURE STRING": "Cc1onc(-c2ccc3c(c2)OCO3)c1-c1ccc2[nH]ccc2c1", "TARGET UNDER TEST": "Rap guanine nucleotide exchange factor 3 (Homo sapiens)", "outcome": "inactive"}
{"STRUCTURE STRING": "CCC(NC(=O)Nc1ncccc1C)(C(F)(F)F)C(F)(F)F", "TARGET UNDER TEST": "Rap guanine nucleotide exchange factor 3 (Homo sapiens)", "outcome": "inactive"}

---

# TARGET UNDER TEST: Phospholipid hydroperoxide glutathione peroxidase GPX4 (Homo sapiens)
# RUN DESCRIPTION: Primary qHTS Assay for Inhibitors of Recombinant Selenoprotein Glutathione Peroxidase 4 (GPX4) (AID 1845192); note: nearly all actives have a fitted effect of over 65% in size; note: potency is the fitted concentration of half-maximal effect
# CONDITION PARAMETERS: recombinant GPX4, GR-coupled NADPH fluorescence, 15 min; series mostly up to 50 µM
Inconclusive results are not listed. Active and inactive are the calls of the source. The call rests on the fitted dose curve; in most records, active means well fitted inhibition curve with a large enough effect; inconclusive means small, poorly fitted or top-dose-only effect; inactive means flat fitted curve, though single readings scatter.
PROPERTY LABEL: Potency

{"COMPOUND": "CC(C)CCC[C@@H](C)[C@H]1CC[C@H]2[C@@H]3CC=C4C[C@@H](O)CC[C@]4(C)[C@@H]3CC[C@]12C", "PROPERTY LABEL": "Potency", "ASSAY VALUE": "inactive"}
{"COMPOUND": "C[C@H]1O[C@]2(CS1)CN1CCC2CC1", "PROPERTY LABEL": "Potency", "ASSAY VALUE": "inactive"}
{"COMPOUND": "CCCCC(=O)O[C@]1(C(=O)COC(C)=O)CC[C@H]2[C@@H]3CCC4=CC(=O)C=C[C@]4(C)[C@H]3[C@@H](O)C[C@@]21C", "PROPERTY LABEL": "Potency", "ASSAY VALUE": "inactive"}
{"COMPOUND": "C[C@H](Cc1cc2c(c(C(N)=O)c1)N(CCCO)CC2)NCCOc1ccccc1OCC(F)(F)F", "PROPERTY LABEL": "Potency", "ASSAY VALUE": "inactive"}
{"COMPOUND": "CC1(C)C2CCC1(C)C(O)C2 (centres undefined)", "PROPERTY LABEL": "Potency", "ASSAY VALUE": "inactive"}
{"COMPOUND": "CCCCCCO[C@@H](C)c1cccc(-c2csc(NC(=O)c3cc(Cl)c(/C=C(\\C)C(=O)O)c(Cl)c3)n2)c1OC", "PROPERTY LABEL": "Potency", "ASSAY VALUE": "2510 nM (active)"}

Potency for Phospholipid hydroperoxide glutathione peroxidase GPX4 (Homo sapiens) with input `COc1ccc(-c2c(Cl)ncn2-c2ccc(S(N)(=O)=O)cc2)cc1F` equals inactive

Potency for Phospholipid hydroperoxide glutathione peroxidase GPX4 (Homo sapiens) with input C[N+]1(C)[C@@H]2CC(OC(=O)C(O)(c3cccs3)c3cccs3)C[C@H]1[C@H]1O[C@@H]12 (some centres undefined) equals inactive

Potency for Phospholipid hydroperoxide glutathione peroxidase GPX4 (Homo sapiens) with input `CNC(=O)c1ccccc1Nc1nc(Nc2ccc3c(c2OC)CCC[C@H](N2CCN(CCO)CC2)C3)ncc1Cl` equals inactive

---

# TARGET UNDER TEST: Rap guanine nucleotide exchange factor 3 (Homo sapiens)
# RUN DESCRIPTION: Counterscreen qHTS for antagonist of cAMP-regulated guanine nucleotide exchange factor 3 (EPAC1) (AID 1645888);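 note: fluorescence loss as bound BODIPY-GDP is released from Rap1B; % of control where 0% means no effect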
# CONDITION PARAMETERS: Rap1B-BODIPY-GDP nucleotide exchange, fluorescence; series mostly up to 154 µM
Records with an inconclusive call do not appear. Activity calls are given as the source filed them. The call rests on the fitted dose curve; in most records, active means well fitted inhibition curve with a large enough effect; inconclusive means small, poorly fitted or top-dose-only effect; inactive means no such curve, though single readings can be large or run the other way.
PROPERTY LABEL: activity change, negative = inhibition

Some solved entries appear below for comparison.
{"COMPOUND": "Cc1ccc(C)n1-c1ccc(C(=O)/C=C/N(C)C)cc1", "PROPERTY LABEL": "activity change, negative = inhibition", "ASSAY VALUE": "-17.3% [at 30.8 µM] (inactive)"}
{"COMPOUND": "CCOC(=O)C1CCCN(c2nc3ccccc3nc2C(C#N)C(=O)OC(C)C)C1 (stereo not drawn)", "PROPERTY LABEL": "activity change, negative = inhibition", "ASSAY VALUE": "0.815% [at 30.8 µM] (inactive)"}
{"COMPOUND": "Oc1c(Br)cc(Br)cc1CNc1cccc2cccnc12", "PROPERTY LABEL": "activity change, negative = inhibition", "ASSAY VALUE": "inactive"}
{"COMPOUND": "NC(=O)[C@H]1CC2(CC(c3cccc(NC(=O)[C@H]4CCC(=O)N4)c3)=NO2)CN1C(=O)c1ccccc1 (stereo partly drawn)", "PROPERTY LABEL": "activity change, negative = inhibition", "ASSAY VALUE": "inactive"}
{"COMPOUND": "CCCC(=O)Oc1c(S(=O)(=O)c2ccc(C)cc2)c(C)nn1C(C)(C)C", "PROPERTY LABEL": "activity change, negative = inhibition", "ASSAY VALUE": "-10.7% [at 30.8 µM] (inactive)"}
{"COMPOUND": "Cc1cc2ccccc2n1CCNC(=O)C1CCCCC1", "PROPERTY LABEL": "activity change, negative = inhibition", "ASSAY VALUE": "inactive"}
{"COMPOUND": "C/C=C/c1cc(OC)c2c(c1)[C@H](C)[C@@H](c1ccc(O)c(OC)c1)O2", "PROPERTY LABEL": "activity change, negative = inhibition", "ASSAY VALUE": "inactive"}
{"COMPOUND": "C[C@H]1CN([C@@H](C)CO)C(=O)CCCn2cc(nn2)CO[C@@H]1CN(C)S(=O)(=O)c1ccc(-n2cccn2)cc1", "PROPERTY LABEL": "activity change, negative = inhibition", "ASSAY VALUE": "inactive"}
{"COMPOUND": "Cc1cc(Cl)ccc1OC(C)C(=O)Nc1ccc(C(=O)Nc2ccccc2C(=O)O)cc1 (stereo not drawn)", "PROPERTY LABEL": "activity change, negative = inhibition", "ASSAY VALUE": "inactive"}
{"COMPOUND": "CCn1c(C(=O)N2CCc3ccccc3C2)cc2sccc21", "PROPERTY LABEL": "activity change, negative = inhibition", "ASSAY VALUE": "inactive"}

Lookup result for CCC(C)Cn1c(O)cc2nn(-c3nc4ccccc4s3)c(=O)c-2c1C (stereo not drawn) ; measured activity change, negative = inhibition: -16.7% [at 30.8 µM] (inactive)

Lookup result for `COC(=O)c1ccc2nc(C3CCCCC3)c(Cc3ccccc3)n2c1` ; measured activity change, negative = inhibition: 6.26% [at 30.8 µM] (inactive)

Lookup result for `Cc1cccc(NC(=O)c2cc(S(=O)(=O)N(C)c3ccc(F)cc3)ccc2Cl)n1` ; measured activity change, negative = inhibition: inactive

Origin of the recorded values: PubChem BioAssay (NCATS)
